experiment: Tested in vitro by mammalian antiproliferative functional assay using human HeLa cells or foreskin fibroblasts
Readout: AP50

So what does the record say about AP50 for CCC(=O)CCCCC[C@@H]1NC(=O)[C@H]2CCCCN2C(=O)[C@H]([C@@H](C)CC)NC(=O)[C@H](c2cnc3ccccc3c2O)NC1=O ?
>10000 ng/mL

Record: CCC(=O)CCCCC[C@@H]1NC(=O)[C@H]2CCCCN2C(=O)[C@H]([C@@H](C)CC)NC(=O)[C@H](c2cn(CC)c3ccccc3c2=O)NC1=O
>10000 ng/mL

Record: CCC(=O)CCCCC[C@@H]1NC(=O)[C@H]2CCCCN2C(=O)[C@H]([C@@H](C)CC)NC(=O)[C@H](c2cnc3ccccc3c2N2CCCCC2)NC1=O
2500 ng/mL

Measured values drawn from ChEMBL document CHEMBL1133988 for this set.
